test system: Vesicular stomatitis virus; experiment: Antiviral activity against VSV in HeLa cells at 100 ug/mL; format: functional, organism-based
Active and inactive are the calls of the source. No cut-off for these calls is given here.
VALUE_TYPE: Activity

{"columns": ["ITEM_SMILES", "VALUE_TYPE", "RECORDED_VALUE"],
 "data": [
  ["C[C@]12C[C@H](n3cnc4c(N)ncnc43)C[C@@]1(CO)O2", "Activity", "inactive"],
  ["C[C@]12C[C@H](n3cnc4c(NC5CC5)ncnc43)C[C@@]1(CO)O2", "Activity", "inactive"],
  ["C[C@]12C[C@H](n3cnc4c(NC5CC5)nc(N)nc43)C[C@@]1(CO)O2", "Activity", "inactive"],
  ["C[C@]12O[C@H]1[C@H](n1cnc3c(NC4CC4)nc(N)nc31)C[C@@H]2CO", "Activity", "inactive"],
  ["C[C@]12O[C@H]1[C@H](n1cnc3c(NC4CC4)ncnc31)C[C@@H]2CO", "Activity", "inactive"],
  ["C[C@]12O[C@H]1[C@H](n1cnc3c(N)ncnc31)C[C@@H]2CO", "Activity", "inactive"]
]}
